These data points were gathered from ChEMBL document CHEMBL1150635.

A collection of compounds and their measured EC50
# System: XF498
# Test: Cytotoxicity against human XF498 cells
# Type: functional
# Assay context: read-out: ED50 (the source's name)
Readout name: EC50 (µg/mL)

>>> df
                                   compound  units_label  comparison_symbol  recorded_number
0  CC1=C(O)[C@H](C/C(C)=C\CC[C@H](C)/C=C/C=C(\C)CCCC2=CC(=O)N(CCC(C)C)C2)OC1=O [SARCOTRINE D]        µg/mL                  >               30
1  CO[C@]1(Cc2ccoc2)C=C(CCC/C(C)=C\CC[C@@H](C)/C=C2\OC(=O)C(C)=C2O)C(=O)O1 [SARCOTIN H]        µg/mL                  =              6.3
2  CC1=C(O)[C@H](C/C(C)=C\CC[C@H](C)/C=C/C=C(\C)CCCC2=CCN(CCc3ccccc3)C2=O)OC1=O [SARCOTRINE B]        µg/mL                  =              5.2
3  COc1cccc2c1C(=O)c1c(O)c3c(c(O)c1C2=O)C[C@@](O)(C(=O)CO)C[C@@H]3O[C@H]1C[C@H](N)[C@H](O)[C@H](C)O1 [DOXORUBICIN]        µg/mL                  =             0.13
4  COC1C=C(CCC/C(C)=C/C=C/[C@@H](C)CC/C=C(/C)C[C@@H]2OC(=O)C(C)=C2O)C(=O)O1 (stereo partly specified) [SARCOTIN F]        µg/mL                  =             20.1
5  CC1=C(O)[C@@H](C/C(C)=C\CC[C@H](C)/C=C/C=C(\C)CCCC2=CCN(CCc3ccccc3)C2=O)OC1=O [EPI-SARCOTRINE B]        µg/mL                  =             10.5
